Data credit: patent US11731967B2

molecular target: recombinant PHD-bromodomain module of TRIM33 (Homo sapiens); construct: rows headed: TRIM33 modulating activity; unit not given; assay: AlphaScreen binding assay, TRIM33 with biotinylated H3K9me3K18ac peptide; conditions: compounds shown in FIG. 14A (Table 8); read-out: TRIM 33 IC50
Sequence (Q9UPN9 whole entry): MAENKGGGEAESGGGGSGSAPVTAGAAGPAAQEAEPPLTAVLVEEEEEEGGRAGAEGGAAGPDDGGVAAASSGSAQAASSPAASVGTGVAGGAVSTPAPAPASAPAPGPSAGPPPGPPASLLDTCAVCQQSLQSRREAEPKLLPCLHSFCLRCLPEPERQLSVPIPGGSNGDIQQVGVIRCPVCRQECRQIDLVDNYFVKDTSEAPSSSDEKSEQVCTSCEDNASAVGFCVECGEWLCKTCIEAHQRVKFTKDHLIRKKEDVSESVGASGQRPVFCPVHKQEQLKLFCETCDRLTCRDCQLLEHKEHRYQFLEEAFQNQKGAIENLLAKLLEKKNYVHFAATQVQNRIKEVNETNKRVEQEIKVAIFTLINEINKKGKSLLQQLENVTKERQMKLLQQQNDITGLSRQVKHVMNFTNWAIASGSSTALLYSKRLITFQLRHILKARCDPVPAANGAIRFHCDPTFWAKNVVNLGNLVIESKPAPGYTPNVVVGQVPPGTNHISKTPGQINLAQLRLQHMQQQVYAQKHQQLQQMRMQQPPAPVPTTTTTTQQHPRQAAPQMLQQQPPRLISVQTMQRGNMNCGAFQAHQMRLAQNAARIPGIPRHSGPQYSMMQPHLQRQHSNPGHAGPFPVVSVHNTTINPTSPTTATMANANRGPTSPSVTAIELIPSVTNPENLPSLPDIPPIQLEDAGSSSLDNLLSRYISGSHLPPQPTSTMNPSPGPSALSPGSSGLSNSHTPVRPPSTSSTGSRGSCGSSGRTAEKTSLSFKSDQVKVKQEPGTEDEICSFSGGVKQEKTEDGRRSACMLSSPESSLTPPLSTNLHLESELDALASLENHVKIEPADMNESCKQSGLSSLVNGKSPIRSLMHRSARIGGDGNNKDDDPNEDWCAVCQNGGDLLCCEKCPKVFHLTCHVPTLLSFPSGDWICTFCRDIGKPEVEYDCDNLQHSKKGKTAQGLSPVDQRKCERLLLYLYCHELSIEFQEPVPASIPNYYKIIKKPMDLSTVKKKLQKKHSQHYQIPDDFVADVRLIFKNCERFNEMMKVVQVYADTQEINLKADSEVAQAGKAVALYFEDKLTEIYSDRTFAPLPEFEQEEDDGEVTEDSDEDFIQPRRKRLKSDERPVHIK
pIC50: −log10 of the molar value.
PARAMETER: pIC50

COc1ccc(CCNc2c(-c3nc(C)n4ccccc34)nc3ccccn23)cc1OC: 4.35
Cc1nc[nH]c1-c1nc2ccc(C(=O)NN)cn2c1NCCN1CCOCC1: 5.89
COC(=O)c1ccc2nc(-c3cn(S(=O)(=O)c4ccc(C)cc4)c4ccccc34)c(NCc3ccccc3)n2c1: 6.50

I. COC(=O)c1ccc2nc(-c3nc[nH]c3C)c(NCCN3CCOCC3)n2c1
II. CCCOc1cc(OCCCCN(C)C)cc(Oc2cc3c(cc2NS(=O)(=O)c2ccc(OC)c(OC)c2)n(C)c(=O)n3C)c1 [IACS9571, reference compound]
III. COc1ccc(CCNc2c(-c3cn(S(=O)(=O)c4ccc(C)cc4)c4ccccc34)nc3ccccn23)cc1OC
Task: Rank ascending by pIC50. State the ranking by listing the labels in the requested order.
Result: II, I, III
(II: 5.20, I: 5.71, III: 6.26)
